- assayTarget: Serine/threonine-protein kinase Nek7 (Homo sapiens)
- Sequence (Q8TDX7 whole entry): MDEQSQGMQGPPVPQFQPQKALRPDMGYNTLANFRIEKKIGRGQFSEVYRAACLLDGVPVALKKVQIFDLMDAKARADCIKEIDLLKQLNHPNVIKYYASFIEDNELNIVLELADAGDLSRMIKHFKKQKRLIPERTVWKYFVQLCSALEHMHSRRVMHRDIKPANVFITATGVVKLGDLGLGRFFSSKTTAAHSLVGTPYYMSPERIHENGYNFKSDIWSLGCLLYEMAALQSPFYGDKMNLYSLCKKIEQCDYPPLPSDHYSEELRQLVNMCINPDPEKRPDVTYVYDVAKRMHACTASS
- assayText: Binding affinity to purified recombinant human NEK7 by SPR analysis
testReadout: pKd
# log scale: pKd equals minus log10 of the concentration in mol/L

So for COc1ccc2cc3[n+](cc2c1OC)CCc1cc2c(cc1-3)OCO2.[Cl-] [BERBERINE CHLORIDE] , the logged pKd turned out to be 4.81
